Below, each of the molecules is paired with its reported CC50 value.
tested on: RD; test: Cytotoxicity against human RD cells by microscopic based visual inspection method; format: cell-based
# value in µM; strip the unit string

CC(C)S(=O)(=O)n1c(N)nc2ccc(/C(=N/O)c3ccccc3)cc21 [ENVIROXIME] = 4.2
O[C@@H]1[C@H](O)[C@@H]2C[C@@H]2[C@H]1n1cnc2c(NC(C3CC3)C3CC3)nc(Cl)nc21 = 41

Query: // lookup CC50 for "CC(C)[C@@H](Nc1nc(Cl)nc2c1ncn2[C@H]1[C@H](O)[C@H](O)[C@]2(CF)C[C@H]12)C1CC1"
Result: 42
